# Test system: mushroom TYR
# Procedure Details: Monophenolase inhibition assay of mushroom TYR (L-tyrosine substrate), lag time
# Format: biochemical, Agaricus bisporus
# Condition Notes: oxidation of L-tyrosine by mushroom TYR; control 264 s
Response key: class 1 means Lag phase >= 400 s; class 0 means Lag phase < 400 s.

Recorded results for 3 compounds are shown here.
Smiles String	Label Class
C=C(C)[C@@H]1CCC(C)=C[C@H]1c1c(O)cc(CCCCC)c(/C=N/NC(=S)N(C)C)c1O	class 0
C=C(C)[C@@H]1CCC(C)=C[C@H]1c1c(O)cc(CCCCC)c(/C=N/NC(=S)NC)c1O	class 0
C=C(C)[C@@H]1CCC(C)=C[C@H]1c1c(O)cc(CCCCC)c(/C=N/NC(=S)Nc2ccccc2)c1O	class 0

Continue with the next compound.
Prompt line: Given `C=C(C)[C@@H]1CCC(C)=C[C@H]1c1c(O)cc(CCCCC)c(/C=N/NC(N)=S)c1O` , state whether its Lag phase is at least 400 s.
Response line: class 1

====

I'd be grateful if you could share measured FRAP value for these entries.
# Procedure Details: Ferric-reducing antioxidant power (FRAP) assay
# Condition Notes: trolox equivalent; 45 min at 37 °C, absorbance 595 nm
Give bare numbers, in μM TE.

Smiles String	Unit	FRAP value
C=C(C)[C@@H]1CCC(C)=C[C@H]1c1c(O)cc(CCCCC)cc1O	μM TE	282.1

Please give FRAP value for each item listed below.
1. C=C(C)[C@@H]1CCC(C)=C[C@H]1c1c(O)cc(CCCCC)c(/C=N/NC(=S)N(C)C)c1O
2. C=C(C)[C@@H]1CCC(C)=C[C@H]1c1c(O)cc(CCCCC)c(/C=N/NC(N)=S)c1O
3. C=C(C)[C@@H]1CCC(C)=C[C@H]1c1c(O)cc(CCCCC)c(/C=N/NC(=S)Nc2ccccc2)c1O
4. C=C(C)[C@@H]1CCC(C)=C[C@H]1c1c(OC)cc(CCCCC)c(/C=N/NC(N)=S)c1OC

Response line:
[981.9, 1257, 931.7, 431.5]

====

# Tested Target: mushroom TYR
# Procedure Details: Inhibition of diphenolase activity of mushroom TYR (L-DOPA substrate)
# Condition Notes: diphenolase activity, L-DOPA 2 mM, pH 6.8, 37 °C; read-out: IC50 against mushroom TYR catalyzing oxidation of L-DOPA
Endpoint: IC50 (µM)
Answers are plain numbers, in µM.

Molecule	Tested Target	Result Number
C=C(C)[C@@H]1CCC(C)=C[C@H]1c1c(O)cc(CCCCC)c(/C=N/NC(=S)Nc2ccccc2)c1O [Compound 8]	mushroom TYR	42.2
C=C(C)[C@@H]1CCC(C)=C[C@H]1c1c(O)cc(CCCCC)c(/C=N/NC(=S)N(C)C)c1O [Compound 7]	mushroom TYR	28.1
C=C(C)[C@@H]1CCC(C)=C[C@H]1c1c(O)cc(CCCCC)c(/C=N/NC(N)=S)c1O [Compound 5, 3-thiosemicarbazone–CBD–aldehyde]	mushroom TYR	27.7
C=C(C)[C@@H]1CCC(C)=C[C@H]1c1c(OC)cc(CCCCC)c(/C=N/NC(N)=S)c1OC [Compound 9, 3-thiosemicarbazone–CBD–dimethylether]	mushroom TYR	22.4

Per the records, this molecule ( C=C(C)[C@@H]1CCC(C)=C[C@H]1c1c(O)cc(CCCCC)c(/C=N/NC(=S)NC)c1O [Compound 6] ) has IC50 equal to 29.4
